# measurement_target: VEGFR-2 (Homo sapiens, UniProt P35968)
# Construct: endogenous in cells; host or cells: HCT116, PaCa2, MCF7 (human cancer cell lines, ATCC origin)
# Sequence (P35968 20-1356): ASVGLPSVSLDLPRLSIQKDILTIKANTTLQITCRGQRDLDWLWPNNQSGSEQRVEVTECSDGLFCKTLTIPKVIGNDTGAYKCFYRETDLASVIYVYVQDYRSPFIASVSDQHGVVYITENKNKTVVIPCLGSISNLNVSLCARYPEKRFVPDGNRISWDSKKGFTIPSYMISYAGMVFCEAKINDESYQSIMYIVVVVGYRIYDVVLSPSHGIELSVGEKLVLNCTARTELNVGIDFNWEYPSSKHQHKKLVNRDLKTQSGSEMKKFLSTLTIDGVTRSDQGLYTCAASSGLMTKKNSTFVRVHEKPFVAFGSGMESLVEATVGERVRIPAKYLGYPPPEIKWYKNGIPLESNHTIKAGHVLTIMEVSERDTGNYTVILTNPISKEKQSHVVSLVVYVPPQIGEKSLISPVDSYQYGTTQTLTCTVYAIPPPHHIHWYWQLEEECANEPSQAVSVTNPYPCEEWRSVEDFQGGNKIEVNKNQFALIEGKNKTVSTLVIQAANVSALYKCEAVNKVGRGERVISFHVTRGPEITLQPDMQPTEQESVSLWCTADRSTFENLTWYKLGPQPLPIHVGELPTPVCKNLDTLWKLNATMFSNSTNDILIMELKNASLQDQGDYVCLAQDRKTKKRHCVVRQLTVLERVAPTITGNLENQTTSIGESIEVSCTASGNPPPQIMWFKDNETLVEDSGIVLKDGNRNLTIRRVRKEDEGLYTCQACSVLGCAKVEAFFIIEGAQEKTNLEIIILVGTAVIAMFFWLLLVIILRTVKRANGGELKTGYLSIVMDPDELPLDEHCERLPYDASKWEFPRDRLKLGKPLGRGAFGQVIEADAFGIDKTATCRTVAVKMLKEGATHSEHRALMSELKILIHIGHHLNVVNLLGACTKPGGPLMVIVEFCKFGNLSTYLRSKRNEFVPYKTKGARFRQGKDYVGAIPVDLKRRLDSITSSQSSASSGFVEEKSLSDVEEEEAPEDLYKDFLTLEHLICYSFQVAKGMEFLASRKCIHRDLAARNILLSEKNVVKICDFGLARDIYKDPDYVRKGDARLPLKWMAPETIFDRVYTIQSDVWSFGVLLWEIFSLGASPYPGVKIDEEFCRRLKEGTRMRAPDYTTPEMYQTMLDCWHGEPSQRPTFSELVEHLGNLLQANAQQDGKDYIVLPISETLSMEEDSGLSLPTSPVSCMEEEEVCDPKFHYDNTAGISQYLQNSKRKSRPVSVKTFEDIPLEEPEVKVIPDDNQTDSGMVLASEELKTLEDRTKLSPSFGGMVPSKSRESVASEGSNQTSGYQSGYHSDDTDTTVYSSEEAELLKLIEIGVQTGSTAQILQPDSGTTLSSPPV
# measurement_protocol: cell-based
# Type: cell-based
# setup_conditions: PaCa-2, PaCa2
Values of inhibition at 10 µM greater than or equal to 80% map to 1; values below map to -1.

Previously resolved entries follow.
CCOP(=O)(OCC)N1C/C(=C\c2ccccc2)C(=O)C2(C1)C(c1ccccc1)CN(C)C21C(=O)Nc2ccccc21 (stereo not drawn) [Compound 17a]; 1
CCOP(=O)(OCC)N1C/C(=C\c2ccc(Br)cc2)C(=O)C2(C1)C(c1ccc(Br)cc1)CN(C)C21C(=O)Nc2ccccc21 (stereo not drawn) [Compound 17l]; -1
CCOP(=O)(OCC)N1C/C(=C\c2ccc(Cl)cc2)C(=O)C2(C1)C(c1ccc(Cl)cc1)CN(C)C21C(=O)Nc2ccc(F)cc21 (stereo not drawn) [Compound 17i]; 1

Dear colleague, could you confirm whether CCOP(=O)(OCC)N1C/C(=C\c2ccc(C)cc2)C(=O)C2(C1)C(c1ccc(C)cc1)CN(C)C21C(=O)Nc2ccc(Cl)cc21 (stereo not drawn) [Compound 17o] has inhibition at 10 µM at or above 80%? 1

---

# measurement_target: COX-2 (Homo sapiens, UniProt P35354)
# Construct: purchased BioVision incorporated USA K548–100
# measurement_protocol: biochemical
# setup_conditions: 3 replicates, read-out: % Inhibition of COX-2 ± SEM
outcome_measure: inhibition at 10 µM (%)
Numbers only, in %.

// below: answered molecules
CCOP(=O)(OCC)N1C/C(=C\c2ccccc2)C(=O)C2(C1)C(c1ccccc1)CN(C)C21C(=O)Nc2ccc(F)cc21 (stereo not drawn) [Compound 17b]; 61.3
CCOP(=O)(OCC)N1C/C(=C\c2ccc(C)cc2)C(=O)C2(C1)C(c1ccc(C)cc1)CN(C)C21C(=O)Nc2ccc(Cl)cc21 (stereo not drawn) [Compound 17o]; 59.3

Param item = CCOP(=O)(OCC)N1C/C(=C\c2ccc(F)cc2)C(=O)C2(C1)C(c1ccc(F)cc1)CN(C)C21C(=O)Nc2ccccc21 (stereo not drawn) [Compound 17e] ; retrieve measured inhibition at 10 µM. 59.6

---

# Tested on: TNF-α
# measurement_protocol: TNF-α inhibitory properties (ELISA), HCT116 cell lysate
# Assay type: cell-based, human
# setup_conditions: at 10 μM, control 95.74 ± 0.5
outcome_measure: TNF-α pg/mL (± SEM) HCT116 (pg/mL)
Answers are plain numbers, in pg/mL.

// below: answered molecules
CCOP(=O)(OCC)N1C/C(=C\c2ccc(Cl)cc2)C(=O)C2(C1)C(c1ccc(Cl)cc1)CN(C)C21C(=O)Nc2ccc(C)cc21 (stereo not drawn) [Compound 17k]; 26.48
CCOP(=O)(OCC)N1C/C(=C\c2ccc(Cl)cc2)C(=O)C2(C1)C(c1ccc(Cl)cc1)CN(C)C21C(=O)Nc2ccccc21 (stereo not drawn) [Compound 17h]; 18.45

Now take the following molecule into account.
Provide the documented TNF-α pg/mL (± SEM) HCT116 with TNF-α as the system for CCOP(=O)(OCC)N1C/C(=C\c2ccc(OC)cc2)C(=O)C2(C1)C(c1ccc(OC)cc1)CN(C)C21C(=O)Nc2ccccc21 (stereo not drawn) [Compound 17p] 26.21

---

# measurement_target: COX-2 (Homo sapiens)
# Construct: purchased BioVision incorporated USA K548–100
# Sequence (P35354 18-604): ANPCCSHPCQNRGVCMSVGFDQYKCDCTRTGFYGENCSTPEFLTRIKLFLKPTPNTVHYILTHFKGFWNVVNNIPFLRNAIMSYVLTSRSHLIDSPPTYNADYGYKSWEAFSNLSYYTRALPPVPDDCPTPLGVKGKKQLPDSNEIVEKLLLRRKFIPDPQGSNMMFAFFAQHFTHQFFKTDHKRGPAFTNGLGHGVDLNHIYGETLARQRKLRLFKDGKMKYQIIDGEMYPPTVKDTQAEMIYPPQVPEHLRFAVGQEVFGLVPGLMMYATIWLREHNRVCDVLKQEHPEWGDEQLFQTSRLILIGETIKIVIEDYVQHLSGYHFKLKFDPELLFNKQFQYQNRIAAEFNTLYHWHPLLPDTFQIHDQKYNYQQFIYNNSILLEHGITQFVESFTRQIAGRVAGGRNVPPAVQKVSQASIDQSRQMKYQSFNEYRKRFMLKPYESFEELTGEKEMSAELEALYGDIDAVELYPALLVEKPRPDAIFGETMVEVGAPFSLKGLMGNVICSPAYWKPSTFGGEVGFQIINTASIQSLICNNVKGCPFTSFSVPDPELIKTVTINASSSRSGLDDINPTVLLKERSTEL
# measurement_protocol: biochemical
# setup_conditions: 3 replicates, read-out: % Inhibition of COX-2 ± SEM
outcome_measure: inhibition at 10 µM (%)
Give bare numbers, in %.

// below: answered compounds
CCOP(=O)(OCC)N1C/C(=C\c2ccc(Cl)cc2)C(=O)C2(C1)C(c1ccc(Cl)cc1)CN(C)C21C(=O)Nc2ccc(C)cc21 (centres unmarked) [Compound 17k]; 55
CCOP(=O)(OCC)N1C/C(=C\c2ccccc2)C(=O)C2(C1)C(c1ccccc1)CN(C)C21C(=O)Nc2ccc(Cl)cc21 (centres unmarked) [Compound 17c]; 53.9
CCOP(=O)(OCC)N1C/C(=C\c2ccc(Cl)cc2)C(=O)C2(C1)C(c1ccc(Cl)cc1)CN(C)C21C(=O)Nc2ccccc21 (centres unmarked) [Compound 17h]; 51.5
CCOP(=O)(OCC)N1C/C(=C\c2ccc(C)cc2)C(=O)C2(C1)C(c1ccc(C)cc1)CN(C)C21C(=O)Nc2ccccc21 (centres unmarked) [Compound 17m]; 60.9
CCOP(=O)(OCC)N1C/C(=C\c2ccccc2)C(=O)C2(C1)C(c1ccccc1)CN(C)C21C(=O)Nc2ccc(C)cc21 (centres unmarked) [Compound 17d]; 56.4
CCOP(=O)(OCC)N1C/C(=C\c2ccc(OC)cc2)C(=O)C2(C1)C(c1ccc(OC)cc1)CN(C)C21C(=O)Nc2ccccc21 (centres unmarked) [Compound 17p]; 53.5
CCOP(=O)(OCC)N1C/C(=C\c2cccs2)C(=O)C2(C1)C(c1cccs1)CN(C)C21C(=O)Nc2ccc(Cl)cc21 (centres unmarked) [Compound 17s]; 56.3

Now take the following compound into account.
Param item = CCOP(=O)(OCC)N1C/C(=C\c2ccc(Br)cc2)C(=O)C2(C1)C(c1ccc(Br)cc1)CN(C)C21C(=O)Nc2ccccc21 (centres unmarked) [Compound 17l] ; retrieve measured inhibition at 10 µM. 50.3

---

# Tested on: TNF-α
# measurement_protocol: TNF-α inhibitory properties (ELISA), HCT116 cell lysate
# Format: cell-based, human
# setup_conditions: at 10 μM
Values of TNF-α % inhibition HCT116 greater than or equal to 10% map to Y; values below map to N.

Previously resolved entries follow.
CCOP(=O)(OCC)N1C/C(=C\c2ccc(F)cc2)C(=O)C2(C1)C(c1ccc(F)cc1)CN(C)C21C(=O)Nc2ccc(Cl)cc21 (centres unmarked) [Compound 17f]; Y
CCOP(=O)(OCC)N1C/C(=C\c2ccc(Cl)cc2)C(=O)C2(C1)C(c1ccc(Cl)cc1)CN(C)C21C(=O)Nc2ccccc21 (centres unmarked) [Compound 17h]; Y
CCOP(=O)(OCC)N1C/C(=C\c2ccccc2)C(=O)C2(C1)C(c1ccccc1)CN(C)C21C(=O)Nc2ccc(C)cc21 (centres unmarked) [Compound 17d]; N
CCOP(=O)(OCC)N1C/C(=C\c2ccc(Cl)cc2)C(=O)C2(C1)C(c1ccc(Cl)cc1)CN(C)C21C(=O)Nc2ccc(Cl)cc21 (centres unmarked) [Compound 17j]; Y
COc1ccc2c(c1)c(CC(=O)O)c(C)n2C(=O)c1ccc(Cl)cc1 [Indomethacin, reference compound]; Y

Dear colleague, could you confirm whether CCOP(=O)(OCC)N1C/C(=C\c2ccc(C)cc2)C(=O)C2(C1)C(c1ccc(C)cc1)CN(C)C21C(=O)Nc2ccc(F)cc21 (centres unmarked) [Compound 17n] has TNF-α % inhibition HCT116 at or above 10%? N

Now this one: CCOP(=O)(OCC)N1C/C(=C\c2ccc(F)cc2)C(=O)C2(C1)C(c1ccc(F)cc1)CN(C)C21C(=O)Nc2ccc(C)cc21 (centres unmarked) [Compound 17g] Y

Now this one: CCOP(=O)(OCC)N1C/C(=C\c2cccs2)C(=O)C2(C1)C(c1cccs1)CN(C)C21C(=O)Nc2ccccc21 (centres unmarked) [Compound 17q] Y

---

# System: RPE1 (normal human immortalized retinal pigment epithelial cell line)
# measurement_protocol: cells
# Format: cell-based
# setup_conditions: Homo sapiens, RPE-1; MTT, normal RPE1 cell; read-out: IC50, μM ± SEM RPE1
Exercise: state measured IC50 for each of the compounds provided.
One number for each entry, in µM.

CCOP(=O)(OCC)N1C/C(=C\c2ccc(Cl)cc2)C(=O)C2(C1)C(c1ccc(Cl)cc1)CN(C)C21C(=O)Nc2ccccc21 (stereo not drawn) [Compound 17h]; 8.15
CCOP(=O)(OCC)N1C/C(=C\c2ccccc2)C(=O)C2(C1)C(c1ccccc1)CN(C)C21C(=O)Nc2ccccc21 (stereo not drawn) [Compound 17a]; 16.8
CCOP(=O)(OCC)N1C/C(=C\c2ccc(OC)cc2)C(=O)C2(C1)C(c1ccc(OC)cc1)CN(C)C21C(=O)Nc2ccccc21 (stereo not drawn) [Compound 17p]; 14.2
CCOP(=O)(OCC)N1C/C(=C\c2ccc(F)cc2)C(=O)C2(C1)C(c1ccc(F)cc1)CN(C)C21C(=O)Nc2ccccc21 (stereo not drawn) [Compound 17e]; 16.6
CCOP(=O)(OCC)N1C/C(=C\c2cccs2)C(=O)C2(C1)C(c1cccs1)CN(C)C21C(=O)Nc2ccc(C)cc21 (stereo not drawn) [Compound 17t]; 25.4

Param item = CCOP(=O)(OCC)N1C/C(=C\c2ccc(F)cc2)C(=O)C2(C1)C(c1ccc(F)cc1)CN(C)C21C(=O)Nc2ccc(C)cc21 (stereo not drawn) [Compound 17g] ; retrieve measured IC50. 19

These data points were gathered from paper PMC12504763.
